System: MOLM-13 cells
Assay: Cell viability assay (CellTiter-Glo) in MOLM-13 cells
Type: cell-based
Settings: MOLM-13 cells, with gilteritinib, three days; read-out: MOLM-13 IC50 (nM) + 10 nM Gil
Experimental: Cell Culture: RS4;11, MV4;11, MOLM-13 and other cells were cultured at 37° C. with 5% CO2 in RPMI 1640 or DMEM Medium supplemented with 10% fetal bovine serum. Cells were authenticated using the short tandem repeat (STR) assays. Mycoplasma test results were negative. Cell viability assays: Cells were seeded at a density of 5000 cells per well in 96-well assay plates and treated with test compounds following a 8-point or 12-point 3-fold serial dilution. […]
measured.parameter: IC50

[
  {
    "compound": "Cc1cccc(-c2cn(C3CC4(CC(CCNc5ccc6c(c5)C(=O)N(C5CCC(=O)NC5=O)C6=O)C4)C3)nc2C2CC2)n1 (centres unmarked)",
    "result.value": "< 10 nM"
  },
  {
    "compound": "O=C1CCC(N2C(=O)c3ccc(NC[C@H]4C[C@H](n5cc(NC6CCOCC6)c(C6CC6)n5)C4)cc3C2=O)C(=O)N1 (some centres unmarked)",
    "result.value": "100 to 1000 nM"
  },
  {
    "compound": "O=C1CCC(N2C(=O)c3ccc(NC[C@H]4C[C@H](n5cc(-c6cc7nn([C@H]8CC[C@H](O)CC8)cc7cn6)c(C6CC6)n5)C4)cc3C2=O)C(=O)N1 (some centres unmarked)",
    "result.value": "< 10 nM"
  },
  {
    "compound": "O=C1CCC(N2C(=O)c3ccc(NC[C@H]4C[C@H](n5cc(-c6ccc7c(n6)CCC7O)c(C6CC6)n5)C4)cc3C2=O)C(=O)N1 (some centres unmarked)",
    "result.value": "100 to 1000 nM"
  },
  {
    "compound": "Cc1cc(F)cnc1-c1cn([C@H]2C[C@H](CNc3ccc4c(c3)CN(C3CCC(=O)NC3=O)C4=O)C2)nc1C1CC1 (some centres unmarked)",
    "result.value": "< 10 nM"
  }
]
